Entry source: PubChem BioAssay

experiment: probe aLAP1 signal on lysate-treated microarray – cell lysate, small-molecule microarray, COS7 lysate, primary screen (AID 1124);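 note: lysate comes from COS7 cells expressing LAP1 and is applied at 0.3 µg/mL; score merges spot fluorescence near 667 nm with signal-to-noise over triplicate slides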
measurement_parameters: probe aLAP1, fluorescence, higher = more signal
Below: a set of entries, each annotated with reported composite z-score.
reported_property: composite z-score

INSERT INTO measurements (compound, reported_property, quantitative_readout) VALUES
  ('COC(=O)[C@@]1(Cc2ccc(OC)cc2)[C@H]2c3cc(C(=O)N(C)C)n(Cc4ccc(C)o4)c3C[C@H]2CN1C(=O)c1ccccc1', 'composite z-score', 0.463),
  ('Cn1cccc1C(O)C1C=CC2C(=O)N(c3ccccc3)C(=O)C2N1Nc1ccccc1 (centres undefined)', 'composite z-score', 0.461),
  ('CC(C)(C)OC(=O)COc1cccc(C(=O)CCN2CCOCC2)c1', 'composite z-score', -0.281),
  ('O=C1OCCC/C=C\[C@H]2OC34C=CCN(c5ccc6ccccc6c5)C(=O)[C@H]3N(CCO)C(=O)[C@@H]4C12 (some centres undefined)', 'composite z-score', 1.48),
  ('CCOC(=O)C[C@H]1[C@H](OC(=O)Cc2ccc3c(c2)OCO3)[C@@H](NC(=O)c2ccc3ccccc3n2)c2cc(OCCCO)ccc2N1C(=O)c1ccccc1', 'composite z-score', -0.115),
  ('Cc1ccc(NN2C(C(O)c3c(F)cccc3Cl)C=CC3C(=O)N(C4CCCCC4)C(=O)C32)cc1 (centres undefined)', 'composite z-score', -0.0134),
  ('NC(=O)NCC#Cc1ccc2c(c1)[C@]1(C(=O)N2)[C@H](c2ccccc2OCCO)N2[C@H](c3ccccc3)[C@H](c3ccccc3)OC(=O)[C@H]2[C@@H]1C(=O)O', 'composite z-score', 0.931),
  ('COCCOC(=O)N1C(=O)[C@@]2(c3cc(C#CCC(C(=O)OC)C(=O)OC)ccc31)[C@H](c1ccc(OCCO)cc1)N1[C@H](c3ccccc3)[C@H](c3ccccc3)OC(=O)[C@H]1[C@@H]2C(=O)N1CCc2cc(OC)c(OC)cc2C1', 'composite z-score', -0.0051),
  ('CCC#CCN(Cc1ccccc1Br)[C@H](/C=C/C1CC1)[C@@H](O)Cc1ccccc1', 'composite z-score', -0.477),
  ('COc1ccc(CCNC(=O)[C@@]2(Cc3ccccc3I)c3ccccc3C(=O)N(C3CCCCC3)[C@H]2c2ccc(CO)cc2)cc1', 'composite z-score', -0.167),
  ('COc1cc2c(cc1O)C(c1ccc(CN3CCCC3)cc1)N(Cc1cc3c(cc1Br)OCO3)CC2 (centres undefined)', 'composite z-score', 0.119),
  ('COc1cc(NN2C(C(O)c3ccc(N(C)C)cc3)C=CC3C(=O)N(c4ccccc4)C(=O)C32)cc(OC)c1OC (centres undefined)', 'composite z-score', -0.196),
  ('COc1ccc([Si](C)(C)[C@H]2[C@H](CC(=O)N3CCC[C@H]3CO)O[C@@]3(C(=O)N(Cc4ccc(N5CCOC5=O)cc4)c4ccccc43)[C@@H]2C)cc1', 'composite z-score', 0.145),
  ('COc1ccc([Si](C)(C)[C@@H]2[C@@H](CCO)O[C@]3(C(=O)N(Cc4ccccc4)c4ccc(NC(=O)[C@H](C)O)cc43)[C@H]2C)cc1', 'composite z-score', 0.515),
  ('CC(C)N1C(=O)c2ccccc2[C@@H](C(=O)NCCN2CCOCC2)[C@@H]1c1ccc(CO)cc1', 'composite z-score', -0.523),
  ('C=C[C@@H](CO)N(Cc1ccc(OC)cc1)S(=O)(=O)c1ccc(Br)cc1', 'composite z-score', -0.345),
  ('NC(=O)[C@@]1(Cc2ccccc2)COC(c2ccc(OCCCO)cc2)=N1', 'composite z-score', -0.238),
  ('NC(=O)[C@H]1[C@@H]2C(=O)O[C@@H](c3ccccc3)[C@@H](c3ccccc3)N2[C@@H](c2ccc(OCCO)cc2)[C@]12C(=O)Nc1ccc(C#CCCO)cc12', 'composite z-score', 0.204),
  ('CC(C)C(CO)N1C(=O)[C@@H]2C3C(=O)OCCC/C=C\[C@H]3OC23C=CCN(c2ccc4ccccc4c2)C(=O)[C@@H]13 (some centres undefined)', 'composite z-score', -0.18);
